test-summary: Cell Viability - LYMP2-011 (AID 969);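 note: cells exposed to compound for 24 hours; nearly all actives have a fitted effect of over 60% in size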; note: potency is the fitted concentration of half-maximal effect
condition-details: LYMP2-011 lymphoblastoid cells viability; series mostly up to 92.2 µM
Records with an inconclusive call do not appear. The source made the active and inactive calls. Calls come from the whole dose curve; as a rule, active = well fitted cell-killing curve with a large enough effect; inconclusive = small, poorly fitted or top-dose-only effect; inactive = flat fitted curve, though single readings scatter.
measurement-type: Potency

Problem: What Potency value was documented for this compound, ClC1=C(Cl)C2(Cl)C3C(Cl)C(Cl)CC3C1(Cl)C2(Cl)Cl (centres undefined) ?
Result: inactive

Problem: Recorded Potency for c1cc(OCC2CO2)cc(OCC2CO2)c1 (centres undefined) , please?
Result: 39.8 µM (active)

Problem: Name the recorded Potency for C[C@@H]1CC[C@@]2(OC1)O[C@H]1[C@@H](O)[C@H]3[C@@H]4CC[C@H]5C[C@@H](O[C@@H]6O[C@H](CO)[C@H](O[C@@H]7O[C@H](CO)[C@@H](O)[C@H](O[C@@H]8OC[C@@H](O)[C@H](O)[C@H]8O)[C@H]7O[C@@H]7O[C@H](CO)[C@@H](O)[C@H](O[C@@H]8O[C@H](CO)[C@@H](O)[C@H](O)[C@H]8O)[C@H]7O)[C@H](O)[C@H]6O)[C@H](O)C[C@]5(C)[C@H]4CC[C@]3(C)[C@H]1[C@@H]2C .
Result: 20 µM (active)

Problem: Dear colleague, I am looking for the recorded Potency of the following compound: COP(=O)(OC)O/C(=C\Cl)c1cc(Cl)c(Cl)cc1Cl
Result: inactive
